- System: KM12 colon
- experiment-description: NCI tumour cell line growth inhibition, 48 h; in the data active means GI50 below about 0.43 µM; inactive means the rest
Outcomes: active, inactive

molecule	test-system	discrete-label
CCc1c2c(nc3ccc(OC(=O)NCc4ccc(B5OC(C)(C)C(C)(C)O5)cc4)cc13)-c1cc3c(c(=O)n1C2)COC(=O)[C@]3(O)CC	KM12 colon	active
CN1CCN(c2ccc(N3Cc4ccccc4OC4=C3C(=O)c3c(O)ccc(O)c3C4=O)cn2)CC1	KM12 colon	inactive
CN1C(=O)N(C)C2C1NN=c1s/c(=C\c3ccccc3F)c(=O)n12 (stereo not given)	KM12 colon	active
[Co+2].[O-]c1ccccc1C=NCc1ccccc1.[O-]c1ccccc1C=NCc1ccccc1	KM12 colon	inactive
C/C=C(\C)C(=O)O[C@H]1C=CC(=O)O[C@H]1CC[C@H](O)[C@H](C)O	KM12 colon	inactive
C[C@H](O)CNc1cc(-c2[nH]c3cccnc3c2-c2ccc(F)cc2)ccn1	KM12 colon	inactive
COc1ccc2c(c1)OCC1c3cc(O)ccc3OC21 (stereo not given)	KM12 colon	inactive
CN1C(=O)/C(=C/c2c(Cl)[nH]c3ccccc23)c2ccccc21	KM12 colon	inactive
CN1C(=O)CC2(C)c3cc(O)ccc3N(C)C12 (stereo not given)	KM12 colon	inactive
O=C(COc1cccc(/C=C2/Oc3ccccc3C2=O)c1)Nc1nccs1	KM12 colon	inactive

----------
Listed here are compounds together with their documented TGI.
- System: SF-539 CNS
- experiment-description: NCI tumour cell line growth inhibition, 48 h

smiles-text	reading-unit	relational-operator	TGI
O=C(c1ccc(Cl)c(Cl)c1)N(Cc1cccnc1)C(=S)N(Cc1cccnc1)C(=O)c1ccc(Cl)c(Cl)c1	µM	=	45.5
Cc1ccccc1C1=C/C(=C(\SS/C(C(=O)c2ccc(OCC(=O)O)c(Cl)c2Cl)=C2\C=C(c3ccccc3C)SS2)C(=O)c2ccc(OCC(=O)O)c(Cl)c2Cl)SS1	µM	=	44.9
O=C(CN1CCN(c2ccccc2)CC1)c1ccc2[nH]c(=O)oc2c1	µM	>	100
CCc1c2c(nc3ccc(OC(=O)NCc4ccc(B5OC(C)(C)C(C)(C)O5)cc4)cc13)-c1cc3c(c(=O)n1C2)COC(=O)[C@]3(O)CC	µM	=	0.0771

----------
- Test system: UACC-257 melanoma
- experiment-description: NCI tumour cell line growth inhibition, 48 h
Classification field: Satisfied = TGI at or over 30 µM; Not satisfied = TGI under 30 µM.

molecule	discrete-label
NC(=O)NC(=O)c1cccc(NC(=O)CI)c1	Not satisfied
COc1cc(C2c3cc4c(cc3CC3COC(=O)N32)OCO4)cc(OC)c1OC (configuration not stated)	Satisfied
OCC#Cc1ccccc1C#CCCCCCCC#Cc1ccccc1C#CCO	Satisfied
CN(C)C(=O)Nc1c([N+](=O)[O-])cc(C(F)(F)F)cc1[N+](=O)[O-]	Satisfied
N/C(=N/N=C/c1cc(Br)cc(Br)c1O)NO	Satisfied
COc1ccc2c(-c3ccc(OCCN(C)C)cc3)c(Oc3ccccc3)c(=O)oc2c1	Not satisfied
Cc1cccc(-c2nnc3s/c(=C\c4ccc5c(c4)OCO5)c(=O)n23)c1	Satisfied
COc1ccc2c(c1)CN1C(=N2)CSC1c1c(Cl)cccc1[N+](=O)[O-] (configuration not stated)	Satisfied
CC(=O)N1N=C(c2cc(C)ccc2O)CC1c1cccc(Cl)c1 (configuration not stated)	Satisfied
CCOc1ccc(NC(=O)C(=O)C2C(=O)Nc3ccccc3S2=O)cc1 (configuration not stated)	Satisfied
CNN1C(=O)c2c(N)c(C#N)c(-c3ccccc3)c(-c3ccccc3)c2C1=O	Satisfied
NC1CCC[C@H]1O (some centres not stated)	Satisfied
C[N+](C)(C)CC(=O)N/N=C(/Cc1nc2ccc(Cl)cc2[nH]c1=O)C1=NS(=O)(=O)c2cc(S(N)(=O)=O)c(Cl)cc2N1	Satisfied
O=C(O)c1c(-c2ccccc2)c(=O)[nH]c2ccccc12	Satisfied
CCOC(=O)C(NC(=O)CC)(Nc1ccc(S(=O)(=O)Nc2ncccn2)cc1)C(F)(F)F (configuration not stated)	Satisfied
COP1(=O)OCc2cnccc2O1 (configuration not stated)	Satisfied
CS(=O)(=O)Nc1ccc(Nc2c3ccccc3nc3cc(N)ccc23)cc1	Not satisfied

----------
- Test system: SK-OV-3 ovarian
- experiment-description: NCI tumour cell line growth inhibition, 48 h

compound	GI50
COc1cc(-c2cc(/C=C/C(=O)c3ccc(N)cc3)[nH]n2)cc(OC)c1OC	2.99 µM
O=C(COc1cccc(/C=C2/Oc3ccccc3C2=O)c1)Nc1nccs1	48.6 µM
C[C@H](O)CNc1cc(-c2[nH]c3cccnc3c2-c2ccc(F)cc2)ccn1	13.1 µM
CN1C(=O)N(C)C2C1NN=c1s/c(=C\c3ccccc3F)c(=O)n12 (configuration not stated)	0.446 µM
CC(C)CCC[C@@H](C)[C@H]1CCC2C3=CCn4c(=O)ccc(=O)n4C3CC[C@@]21C (some centres not stated)	1.78 µM
CC(C)OP(=O)(OC(C)C)C([CH2][Sn]([CH3])([CH3])[Cl])P(=O)(OC(C)C)OC(C)C	25.5 µM
Cn1c2c(c3ccc(-c4ccn[nH]4)cc3c1=O)C(=O)c1ccccc1-2	5.21 µM
Oc1ccccc1N=Cc1c(O)ccc2ccccc12	15.9 µM
O=C(Nc1ccc(Cl)cc1)Nc1ccc(Oc2nncc3ccccc23)cc1	1.74 µM
Clc1ccc(N2CCN(CCCN3CCN(c4cccc(Cl)c4)CC3)CC2)cc1	10.7 µM
O=C1OC(c2cccc(C(F)(F)F)c2)c2ccc3ccccc3c21 (configuration not stated)	> 100 µM
O=C1/C(=C/c2ccc(O)c(O)c2)COc2ccc(-c3ccccc3)cc21	4.77 µM

----------
- Test system: NCI-H460 lung
- experiment-description: NCI tumour cell line growth inhibition, 48 h
metric: TGI

compound	measured-result
Oc1c(-c2ccccc2)nc2ccccn12	> 100 µM
c1ccc2c(c1)c(N1CCCCC1)cc1nc3c(cc(N4CCCCC4)c4ccccc43)nc12	> 100 µM
CC[N+](CC)(CC)Cc1cc2ccccc2n1C(=O)OC	> 100 µM
O=C1CC[C@@]2(O)[C@H]3Cc4ccc(-c5cccc(O)c5)c5c4[C@@]2(CCN3CC2CC2)[C@H]1O5	29.2 µM
Cc1c(Cl)ccc2c1NC(=O)C2(O)CC(=O)c1ccc2ccccc2c1 (stereo not given)	> 100 µM

----------
- Test system: MDA-MB-435
- experiment-description: NCI tumour cell line growth inhibition, 48 h
Item-by-item account of TGI

compound	test-system	TGI
Nc1cc(N)c2nc(-c3ccccc3)c(Sc3ccc(Cl)c(Cl)c3)nc2c1	MDA-MB-435	60.9 µM
CC(=O)N1N=C(c2cc(C)ccc2O)CC1c1cccc(Cl)c1 (configuration not stated)	MDA-MB-435	4.05 µM
Cc1ccccc1C1=C/C(=C(\SS/C(C(=O)c2ccc(OCC(=O)O)c(Cl)c2Cl)=C2\C=C(c3ccccc3C)SS2)C(=O)c2ccc(OCC(=O)O)c(Cl)c2Cl)SS1	MDA-MB-435	> 100 µM
O=C1C(=C/C=C2/SC(c3ccccc3)(c3ccccc3)c3ccccc32)C(=O)c2ccccc21	MDA-MB-435	> 100 µM
O=C(c1ccc(Cl)c(Cl)c1)N(Cc1cccnc1)C(=S)N(Cc1cccnc1)C(=O)c1ccc(Cl)c(Cl)c1	MDA-MB-435	> 100 µM
COCCCN(Cc1cc(OC)c(OC)c(OC)c1)C(=S)Nc1cccc(Cl)c1	MDA-MB-435	48.4 µM
CCOC(=O)c1sc2nc(SC)nc(N3CCCCC3)c2c1N	MDA-MB-435	> 100 µM
N#Cc1ccc(Oc2nc3ccccc3nc2C(=O)O)cc1	MDA-MB-435	> 100 µM
c1ccc2c(c1)c(N1CCCCC1)cc1nc3c(cc(N4CCCCC4)c4ccccc43)nc12	MDA-MB-435	> 100 µM
CC(=O)NC(Cc1cnc[nH]1)C(=O)N1CCCC1C(N)=O (configuration not stated)	MDA-MB-435	> 100 µM
COP1(=O)OCc2cnccc2O1 (configuration not stated)	MDA-MB-435	> 100 µM
CN(C)c1ccc(/C=c2/c3ccccc3n3c2cc(-c2ccc(Cl)cc2)[n+]3C)cc1	MDA-MB-435	1.18 µM

----------
- Tested on: TK-10 renal
- experiment-description: NCI tumour cell line growth inhibition, 48 h
# TGI per entry
metric: TGI (µM)

smiles-text	test-system	metric	relational-operator	measured-result
CC1=c2c(oc3cc(O)c(Nc4c(C)cc(O)cc4O)c(C)c23)=CC(=O)C1=Nc1c(C)cc(O)cc1O	TK-10 renal	TGI	>	100
O=C1CC[C@@]2(O)[C@H]3Cc4ccc(-c5cccc(O)c5)c5c4[C@@]2(CCN3CC2CC2)[C@H]1O5	TK-10 renal	TGI	=	47
C[N+](C)(C)CC(=O)N/N=C(/Cc1nc2ccc(Cl)cc2[nH]c1=O)C1=NS(=O)(=O)c2cc(S(N)(=O)=O)c(Cl)cc2N1	TK-10 renal	TGI	>	100
CCOc1ccc2nc(S/C(=C/C=C(C#N)C#N)c3ccc(Cl)cc3)sc2c1	TK-10 renal	TGI	=	9.83
Cc1ccc2nc(-n3c(/C=C/c4ccccc4O)nc4ccccc4c3=O)sc2c1	TK-10 renal	TGI	>	100
